target or test system: PKCε (h) (Homo sapiens, UniProt Q02156)
Sequence (Q02156 1-737): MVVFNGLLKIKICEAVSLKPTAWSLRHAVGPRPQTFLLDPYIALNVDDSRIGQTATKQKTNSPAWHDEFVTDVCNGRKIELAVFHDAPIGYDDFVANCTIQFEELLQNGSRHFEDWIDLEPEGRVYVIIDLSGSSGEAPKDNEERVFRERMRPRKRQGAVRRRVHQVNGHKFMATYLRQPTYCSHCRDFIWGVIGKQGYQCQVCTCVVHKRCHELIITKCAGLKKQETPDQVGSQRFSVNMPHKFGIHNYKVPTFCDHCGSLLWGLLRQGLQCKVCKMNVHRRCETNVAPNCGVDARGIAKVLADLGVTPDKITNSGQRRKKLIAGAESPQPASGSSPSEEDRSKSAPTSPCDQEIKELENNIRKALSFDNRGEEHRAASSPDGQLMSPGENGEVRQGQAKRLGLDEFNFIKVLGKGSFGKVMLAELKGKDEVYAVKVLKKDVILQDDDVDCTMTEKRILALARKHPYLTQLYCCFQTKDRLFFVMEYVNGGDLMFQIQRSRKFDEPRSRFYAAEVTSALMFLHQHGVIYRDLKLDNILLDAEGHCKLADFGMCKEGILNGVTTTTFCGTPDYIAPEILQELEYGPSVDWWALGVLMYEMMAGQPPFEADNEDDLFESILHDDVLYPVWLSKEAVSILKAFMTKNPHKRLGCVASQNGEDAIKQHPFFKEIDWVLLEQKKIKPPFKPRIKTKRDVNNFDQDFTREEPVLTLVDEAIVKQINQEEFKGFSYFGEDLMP
test summary: In vitro PKCε kinase assay (radiometric, [γ-33P-ATP], HotSpot)
test settings: recombinant human PKCε, 10 μM ATP; read-out: IC50 in antagonizing the PKCε
Reported IC50 is given for each of the following molecules.

Q: # get_value(readout='IC50', item= "Cc1oc(-c2ccc(Cl)cc2)nc1CN1CCC(C(=O)NCCCN2CCCCCC2)CC1" )
Ans: 10 to 1000 nM

Q: Also need "Cc1oc(-c2cccc(Cl)c2)nc1CN1CCC(C(=O)NCCCN2CCC(Cc3cccc(Cl)c3)CC2)CC1" , thanks.
Ans: 10 to 1000 nM

Q: Also need O=C(NCCCc1ccncc1)c1ccc(C=C2Sc3ccccc3N(Cc3ccccc3F)C2=O)cc1 (mixture of isomers) , thanks.
Ans: 10 to 1000 nM
